These data points were gathered from ChEMBL document CHEMBL1145006.

target_or_system: Somatostatin receptor type 4 (Homo sapiens)
experimental_details: Binding affinity towards human Somatostatin receptor type 4 (sst4) using Tyr11-[125I]-SRIF as radioligand was determined in CHO cells
Format: cell-based
assay_context: cho
Positions of bridges follow the written chain, without caps; N, C: chain ends. Residues, ends and D or L forms follow the SMILES beside them.
measured_parameter: Log Ki

The cases that follow already have their Log Ki on record.
compound	Log Ki
NCCCC[C@@H]1NC(=O)[C@@H](Cc2c[nH]c3ccccc23)NC(=O)[C@H](Cc2c[nH]cn2)NC(=O)[C@@H]2C[C@@H](OC(=O)NCCN)CN2C(=O)[C@H](Cc2ccccc2)NC(=O)[C@H](Cc2ccc(OCc3ccccc3)cc2)NC1=O	> -7
C[C@H](N)C(=O)N[C@@H](C)C(=O)N[C@H]1CSSC[C@@H](C(N)=O)NC(=O)[C@H](CO)NC(=O)[C@H]([C@@H](C)O)NC(=O)[C@H](Cc2ccccc2)NC(=O)[C@H]([C@@H](C)O)NC(=O)[C@H](CCCCN)NC(=O)[C@H](Cc2c[nH]c3ccccc23)NC(=O)[C@H](Cc2ccccc2)NC(=O)[C@H](Cc2ccccc2)NC(=O)[C@H](CC(N)=O)NC(=O)[C@H](CCCCN)NC1=O (H-AACKNFFWKTFTSC-NH2; disulfide 3-14)	> -9.7

Query :: Fill in: Log Ki of "NCCCC[C@@H]1NC(=O)[C@@H](Cc2c[nH]c3ccccc23)NC(=O)[C@H](Cc2ccc(O)cc2)NC(=O)[C@@H]2C[C@@H](OC(=O)NCCN)CN2C(=O)[C@H](Cc2ccccc2)NC(=O)[C@H](Cc2ccc(OCc3ccccc3)cc2)NC1=O" is ___
Result :: > -7

###

Recorded Log Ki, one value per entry.
target_or_system: Somatostatin receptor type 4 (Homo sapiens, UniProt P31391)
Sequence (P31391 whole entry): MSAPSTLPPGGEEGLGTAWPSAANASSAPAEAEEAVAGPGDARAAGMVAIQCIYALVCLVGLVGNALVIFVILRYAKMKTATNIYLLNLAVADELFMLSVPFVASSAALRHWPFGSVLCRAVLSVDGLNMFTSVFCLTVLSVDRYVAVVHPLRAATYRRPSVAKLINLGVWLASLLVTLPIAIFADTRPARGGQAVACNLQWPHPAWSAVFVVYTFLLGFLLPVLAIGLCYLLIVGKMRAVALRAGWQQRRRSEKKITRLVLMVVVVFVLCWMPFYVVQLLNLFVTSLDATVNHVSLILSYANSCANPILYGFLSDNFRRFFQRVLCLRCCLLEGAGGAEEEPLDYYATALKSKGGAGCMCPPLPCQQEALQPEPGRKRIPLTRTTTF
experimental_details: Binding affinity towards human Somatostatin receptor type 4 (sst4) using Tyr11-[125I]-SRIF as radioligand was determined in CHO cells
Type: cell-based
assay_context: cho
Starred links: 1 amine or outer side, 2 acyl side, 3 side chain; linkers in the order of their positions; H or OH if unused. Positions of bridges follow the written chain, without caps; N, C: chain ends. Non-standard residues stand in square brackets, D forms with d. Residues, ends and D or L forms follow the SMILES beside them. Groups on a side chain read outwards from the residue. *: point of attachment. Ethylenediamine = C(CN[*:2])N[*:1]; Hyp = O=C(O)[C@@H]1C[C@@H](O)CN1; Phg = N[C@H](C(=O)O)c1ccccc1; CO = O=C([*:1])[*:2]; Bn = c1ccc(C*)cc1

compound	measured_parameter	experimental_result
C[C@H](N)C(=O)NCC(=O)N[C@H]1CSSC[C@@H](C(N)=O)NC(=O)[C@H](CO)NC(=O)[C@H]([C@@H](C)O)NC(=O)[C@H](Cc2ccccc2)NC(=O)[C@H]([C@@H](C)O)NC(=O)[C@H](CCCCN)NC(=O)[C@H](Cc2c[nH]c3ccccc23)NC(=O)[C@H](Cc2ccccc2)NC(=O)[C@H](Cc2ccccc2)NC(=O)[C@H](CC(N)=O)NC(=O)[C@H](C)NC1=O (H-AGCANFFWKTFTSC-NH2; disulfide 3-14)	Log Ki	> -9.5
C[C@H](N)C(=O)NCC(=O)N[C@H]1CSSC[C@@H](C(N)=O)NC(=O)[C@H](CO)NC(=O)[C@H]([C@@H](C)O)NC(=O)[C@H](Cc2ccccc2)NC(=O)[C@H]([C@@H](C)O)NC(=O)[C@H](CCCCN)NC(=O)[C@H](Cc2c[nH]c3ccccc23)NC(=O)[C@H](Cc2ccccc2)NC(=O)[C@H](C)NC(=O)[C@H](CC(N)=O)NC(=O)[C@H](CCCCN)NC1=O (H-AGCKNAFWKTFTSC-NH2; disulfide 3-14)	Log Ki	> -7.1
C[C@H](N)C(=O)NCC(=O)N[C@H]1CSSC[C@@H](C(N)=O)NC(=O)[C@H](CO)NC(=O)[C@H]([C@@H](C)O)NC(=O)[C@H](Cc2ccccc2)NC(=O)[C@H]([C@@H](C)O)NC(=O)[C@H](CCCCN)NC(=O)[C@H](Cc2c[nH]c3ccccc23)NC(=O)[C@H](Cc2ccccc2)NC(=O)[C@H](Cc2ccccc2)NC(=O)[C@H](C)NC(=O)[C@H](CCCCN)NC1=O (H-AGCKAFFWKTFTSC-NH2; disulfide 3-14)	Log Ki	> -9.7

Query :: Fill in: Log Ki of C[C@H](N)C(=O)NCC(=O)N[C@H]1CSSC[C@@H](C(N)=O)NC(=O)[C@H](C)NC(=O)[C@H]([C@@H](C)O)NC(=O)[C@H](Cc2ccccc2)NC(=O)[C@H]([C@@H](C)O)NC(=O)[C@H](CCCCN)NC(=O)[C@H](Cc2c[nH]c3ccccc23)NC(=O)[C@H](Cc2ccccc2)NC(=O)[C@H](Cc2ccccc2)NC(=O)[C@H](CC(N)=O)NC(=O)[C@H](CCCCN)NC1=O (H-AGCKNFFWKTFTAC-NH2; disulfide 3-14) is ___
Result :: > -10

Query :: # iterate: "C[C@@H](O)[C@@H]1NC(=O)[C@H](CCCCN)NC(=O)[C@@H](Cc2c[nH]c3ccccc23)NC(=O)[C@H](Cc2ccccc2)NC(=O)[C@@H]2CCCN2C(=O)[C@H](Cc2ccccc2)NC1=O"
Result :: > -7

Query :: # iterate: "CN(C)CCNC(=O)O[C@@H]1C[C@H]2C(=O)N[C@@H](Cc3ccccc3)C(=O)N[C@H](Cc3c[nH]c4ccccc34)C(=O)N[C@@H](CCCCN)C(=O)N[C@@H](Cc3ccc(OCc4ccccc4)cc3)C(=O)N[C@@H](Cc3ccccc3)C(=O)N2C1"
Result :: > -7

Query :: # iterate: C[C@H](N)C(=O)NCC(=O)N[C@H]1CSSC[C@@H](C(N)=O)NC(=O)[C@H](CO)NC(=O)[C@H](C)NC(=O)[C@H](Cc2ccccc2)NC(=O)[C@H]([C@@H](C)O)NC(=O)[C@H](CCCCN)NC(=O)[C@H](Cc2c[nH]c3ccccc23)NC(=O)[C@H](Cc2ccccc2)NC(=O)[C@H](Cc2ccccc2)NC(=O)[C@H](CC(N)=O)NC(=O)[C@H](CCCCN)NC1=O (H-AGCKNFFWKTFASC-NH2; disulfide 3-14)
Result :: > -9.2

Query :: # iterate: C[C@H](N)C(=O)NCC(=O)N[C@H]1CSSC[C@@H](C(N)=O)NC(=O)[C@H](CO)NC(=O)[C@H]([C@@H](C)O)NC(=O)[C@H](Cc2ccccc2)NC(=O)[C@H]([C@@H](C)O)NC(=O)[C@H](CCCCN)NC(=O)[C@H](Cc2c[nH]c3ccccc23)NC(=O)[C@H](C)NC(=O)[C@H](Cc2ccccc2)NC(=O)[C@H](CC(N)=O)NC(=O)[C@H](CCCCN)NC1=O (H-AGCKNFAWKTFTSC-NH2; disulfide 3-14)
Result :: > -8.7

Query :: # iterate: NCCCC[C@@H]1NC(=O)[C@@H](Cc2c[nH]c3ccccc23)NC(=O)[C@H](c2ccccc2)NC(=O)[C@@H]2C[C@@H](OC(=O)NCCN)CN2C(=O)[C@H](Cc2ccccc2)NC(=O)[C@H](Cc2ccc(OCc3ccccc3)cc2)NC1=O [PASIREOTIDE] (cyclo(F[Hyp]([CO-Ethylenediamine])[Phg][dW]KY(Bn)))
Result :: > -7

Query :: # iterate: C[C@H](N)C(=O)NCC(=O)N[C@H]1CSSC[C@@H](C(N)=O)NC(=O)[C@H](CO)NC(=O)[C@H]([C@@H](C)O)NC(=O)[C@H](Cc2ccccc2)NC(=O)[C@H](C)NC(=O)[C@H](CCCCN)NC(=O)[C@H](Cc2c[nH]c3ccccc23)NC(=O)[C@H](Cc2ccccc2)NC(=O)[C@H](Cc2ccccc2)NC(=O)[C@H](CC(N)=O)NC(=O)[C@H](CCCCN)NC1=O (H-AGCKNFFWKAFTSC-NH2; disulfide 3-14)
Result :: > -8.4

Query :: # iterate: C[C@H](N)C(=O)NCC(=O)N[C@H]1CSSC[C@@H](C(N)=O)NC(=O)[C@H](CO)NC(=O)[C@H]([C@@H](C)O)NC(=O)[C@H](C)NC(=O)[C@H]([C@@H](C)O)NC(=O)[C@H](CCCCN)NC(=O)[C@H](Cc2c[nH]c3ccccc23)NC(=O)[C@H](Cc2ccccc2)NC(=O)[C@H](Cc2ccccc2)NC(=O)[C@H](CC(N)=O)NC(=O)[C@H](CCCCN)NC1=O (H-AGCKNFFWKTATSC-NH2; disulfide 3-14)
Result :: > -9

###

target_or_system: Somatostatin receptor type 3 (Homo sapiens)
Sequence (P32745 whole entry): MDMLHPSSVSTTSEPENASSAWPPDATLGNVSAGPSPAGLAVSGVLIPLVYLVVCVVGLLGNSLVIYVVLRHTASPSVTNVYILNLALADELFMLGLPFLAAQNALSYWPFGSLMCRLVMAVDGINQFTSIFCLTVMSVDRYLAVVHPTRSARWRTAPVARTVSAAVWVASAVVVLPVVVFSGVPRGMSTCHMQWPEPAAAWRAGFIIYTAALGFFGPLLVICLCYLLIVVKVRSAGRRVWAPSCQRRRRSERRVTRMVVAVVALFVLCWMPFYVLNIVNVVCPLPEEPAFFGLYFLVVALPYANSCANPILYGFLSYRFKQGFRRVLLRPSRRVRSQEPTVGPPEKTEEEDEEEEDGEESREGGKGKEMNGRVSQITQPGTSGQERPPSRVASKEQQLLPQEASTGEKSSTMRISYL
experimental_details: Binding affinity towards human Somatostatin receptor type 3 (sst3) using Tyr11-[125I]-SRIF as radioligand was determined in CHO cells
Assay type: cell-based
pKi: −log10 of the molar value. Positions of bridges follow the written chain, without caps; N, C: chain ends. Non-standard residues stand in square brackets, D forms with d. Residues, ends and D or L forms follow the SMILES beside them. *: point of attachment. Hyp = O=C(O)[C@@H]1C[C@@H](O)CN1; Bn = c1ccc(C*)cc1
measured_parameter: pKi

compound	pKi
C[C@H](N)C(=O)NCC(=O)N[C@H]1CSSC[C@@H](C(N)=O)NC(=O)[C@H](CO)NC(=O)[C@H]([C@@H](C)O)NC(=O)[C@H](Cc2ccccc2)NC(=O)[C@H]([C@@H](C)O)NC(=O)[C@H](CCCCN)NC(=O)[C@H](C)NC(=O)[C@H](Cc2ccccc2)NC(=O)[C@H](Cc2ccccc2)NC(=O)[C@H](CC(N)=O)NC(=O)[C@H](CCCCN)NC1=O (H-AGCKNFFAKTFTSC-NH2; disulfide 3-14)	6.00
NCCCC[C@@H]1NC(=O)[C@@H](Cc2c[nH]c3ccccc23)NC(=O)[C@H](Cc2ccccc2)NC(=O)[C@@H]2C[C@@H](O)CN2C(=O)[C@H](Cc2ccccc2)NC(=O)[C@H](Cc2ccc(OCc3ccccc3)cc2)NC1=O (cyclo(F[Hyp]F[dW]KY(Bn)))	8.80

(a) C[C@@H](O)[C@@H]1NC(=O)[C@H](CCCCN)NC(=O)[C@@H](Cc2c[nH]c3ccccc23)NC(=O)[C@H](Cc2ccccc2)NC(=O)[C@@H]2C[C@@H](O)CN2C(=O)[C@H](Cc2ccccc2)NC1=O (cyclo(F[Hyp]F[dW]KT))
(b) CC(C)[C@@H]1NC(=O)[C@H](CCCCN)NC(=O)[C@@H](Cc2c[nH]c3ccccc23)NC(=O)[C@H](Cc2ccc(O)cc2)NC(=O)[C@H](C)N(C)C(=O)[C@H](Cc2ccccc2)NC1=O [SEGLITIDE]
Query :: Given the listed records, identify the one among a and b with higher pKi. # reply format: chosen label
Result :: b
